Each record here notes measured PET hydrolysis.
# Method notes: PET hydrolysis, aromatic products released after 48 h (umol product/mg enzyme); higher = more PET depolymerization activity
# Condition details: substrate: aFilm; 40 °C; pH 4.5

>  <Residue codes>
ADNPYQRGPDPTPASVAAVNGPFATASVSVPAGYGFGGGMIYYPTDTSQGTFGGIAISPGYTALFSAELAWMGPWLASHGFVVIGIETNSRNDFDEARGTQLLAALDYLTQQSPVRTRVDPNRLAVSGHSMGGGGALNAAIRRPSLKAAVGLAPFLPSSNLANDRVPTMVFAGQQDTVVSPSYVTNLYNSLPATTESAYLEIAGGDHGFPVGRPNQVMIRTMLPFVKIFLDNDTRYSQFLCPLMDSTGVVTYRSTCPLLPPGLPTTPPTSTSSNPTVGPTTPSTTAPTTTPAPGGACTATYRTTNSWPGGFQGEVTITAGSSAINGWTVRWTLGSGQTISQVWNGEVSITGSTVSVRNAPYNGSLPASGSTTFGFLGGGSPSSPSLTCTSP [TEP165]

>  <PET hydrolysis>
< 3

$$$$
>  <Residue codes>
AEAADNPYQRGPDPTLASVAATRGPFATAQATVPAGNGFNGGYVYYPTDTSLGTWGAVAIVPGYSALFADEEAWMGPWLASFGFVVLGIETNSRTDGADARATQLLAALDYLTQSSPVRHRVDANRLGVMGHSAGGAGTLMAALRRPSLKSAVGLAPGAPGNSLNMSTTQVPTMLISGQNDGTVTPSYVQGIYNTLPATVEHAWAELAGNDHLSFTRPNPTEMRILIPWLKIFLDNDTRYTQFLCPLADSTGVSRYSATCPLVPPGGPTAPPTVTPPPPTPTTPSPTTPPTSAACTATYRTVNSWSGGFQGEVTVTAGRAAINGWTVRWDLGNGQSISQVWNGTLSTSGSTATVRNVSYNGSLAPAASTGFGFLGTGAPAIPRLTCTSP [ESM037]

>  <PET hydrolysis>
< 3

$$$$
>  <Residue codes>
NPYERGPDPTTASIEASRGSFATSTVTVSRLAVSGFGGGTIYYPTTTTAGTFGAISIAPGFTATQSSMAWLGPRLASQGFVVFTIDTITTSDQPDSRGRQLLASLDYLTQQSSVRSRIDSSRLGVVGHSMGGGGTLEAARSRPSLQAAVPLTGWNLTKNWSTLRVPTLVVGAQSDTIAPVASHSIPFYTSLPSTLDRAYLELRGASHFAPNTSNTTIAKYTLSWLKRFIDNDTRYEQFLCPIPSSSLSISDYRGNCPHNG [ESM167]

>  <PET hydrolysis>
< 3

$$$$
>  <Residue codes>
AANPYERGPDPTDAILEAARGPFETSRTEVPALSVTGFGGGTIYYPATTSAGTFGGVAVAPGYTADRTSLAWLAERLASHGFVVFNIDTLTRLDQPDSRGRQLLAALDYLTQRSSVRGRLDAGRLGVMGHSMGGGGTLEAARDRPSLQAAVPLTPWDLTKIWSGVRVPTMIVGAEADTIAPVASHAEPFYQSLPSSPGKAYLELNNATHFAPNVPDTTIGKYVVAWMKRFVDDDTRYTRFLCPGPSGGLTVEEYRSTCPFS [TEP194]

>  <PET hydrolysis>
< 3

$$$$

Reported PET hydrolysis for ADNPYQRGPDPTPASIAADHGPFATAQTTIPKGNGLGGGIVYYPTDTSQGTFGAIAIAPGYGTEWRWYGWLGPRLASFGFVVVGIETNSLSDYADARADQLLAALDWLVTSSPVRDRVDRTRLAVGGHSMGGGGALVAATRRPSLRSAVGMAPYVPDGILRGTSVPTILFGGQADTTVTPAYLASAYATIPATVPRAYPEIAGEGHGFAAGGGGGNSGAFARVMMVWLKVFVDADTRYPPFLCPTLSNTSGISKYQASCPLGPGGTIPPPDTSRLANANAGRCLDASGAGTANGTKVILWTCNHGANQQWNRT [ESM139] : what is it?
< 3

----------
# Method notes: PET hydrolysis, aromatic products released after 48 h (umol product/mg enzyme); higher = more PET depolymerization activity
# Condition details: substrate: cryPow; 40 °C; pH 7.5
Each record here notes measured PET hydrolysis.
Provide a numeric answer; units are not to be included.

>  <Residue codes>
MAENPYERGPAPTTSSIEASRGSFATSTVTVSRLAVSGFGGGTIYYPTSTTAGTFGAISIAPGFTALQSSIAWLGPRLASQGFVVFTIDTLTTSDQPDSRGRQLLAALDYLTQQSSVRSRIDSSRLGVVGHSMGGGGTLEAARSRPSLQAAIPLTGWNLTKTWSTVRVPTLVVGAQADTVAPVASHSIPFYNSLPSSLDKAYLELRGASHFAPNSSNTTIAKYTLSWLKRFIDNDTRYEQFLCPIPSTSLSISDYRGNCPHNG [TEP182]

>  <PET hydrolysis>
17.5

$$$$

Field: next sequence
Reported PET hydrolysis for MPPPPPPPPPVQTVTVEPGYGFGGGTIYYPQESTGRLPVVAAVPGFTETQEAVAWYGPLLARRGNIVITIDTISPTNAPKTRADQALAAIDYVVTQSAVSDIADASRTAVMGHSMGGGASLFAALKRPTLKAIVPLAPWARTTDFSGVAVPTLIVGCENDGIAAVGTYAEPFYESIPATTPKAYLEMAGGNHYCTNSEDPVIAGYVSAWTDRFLKGDTTASSRLCPPSPVGPISEYRSNCPY [TEP189] : what is it?
62

----------
# Method notes: melting temperature (DSF); higher = more thermostable
Measurement name: melting temperature (C)
Report as a plain number; the unit C is understood.

# annotated cases, reported melting temperature shown
>  <Residue codes>
DDGYQRGPDPTEESIEAPRGTFEIGMAVVTRASADGFGGGTVYYPTDTSEGTFGAVAVSPGYSSSQAAIAWLGPRLASQGFVVFTIDTLSTSDSPTRRGDQVLAALSFLGRTELADRIDPDRLAVMGHSMGGGGSLEAAKDYPALQAIVPMTPWSVDKTFPEVTAPTLVIGAEDDVVARPRSHAEPIYESLPADGDKAYLELRDASHSAPSAPNTLIARYSLSWLKRYVDDDERYQQFLCPPPAVDDEISEYRSTCA [DP089]

>  <Readout units>
C

>  <melting temperature>
52

$$$$
>  <Residue codes>
ASPYERGPNPTAASVSATTGPFAIASVSVARGNGFGGGVIYYPTATNQGTFGGIAISPGLNGTWAGIAWLGPRLASQGFVVFGIETNNLNDSPTSRGTQLLAALDYLTQRSTVRTRVDAGRLAVMGHSMGGGGALDAALRRPSLQAAIGNAPHLPSGTLSNDRVPTMIYAMQNDTLVPPSRLTTLYNSIPATTERGYILVTGAGHNYIGQPSTTLARTMIPWFKIFIDDDTRYSQFLCPMSNQSGISQYRNSCPLS [ESM160]

>  <Readout units>
C

>  <melting temperature>
55.6

$$$$
>  <Residue codes>
AQENPYERGPAPTAQNITEDGPFAYATATVPAQSGFAGGAIYYPTDTSQGTFGAVAAVPGFLTPVDDVAWMGPRLASHGFVVFTIEPNSRFEFPSGRAAALKAGLTYLTQSSAVRDRVDPTRLAVAGHSMGGGAALEAALKDPNLKAAVALQPWHTGVNFSTVNVPSMIVGAENDPIASPASHAEPFYEQIPAASEKAYLNLAGVGHEVGGVVTNDTQSSMMLTWLKRYVDNDTRYEPFMCPGPSGSSVLEYRGTCPG [TEP170]

>  <Readout units>
C

>  <melting temperature>
49.3

$$$$
>  <Residue codes>
QSAEASPPHGPDPTEESITAPRGPFEIDQKTVSRASVRGFGGGTIYYPTDTSEGTFSAVAIAPGYTAGQESLAWLGPRLASQGFVVFTIDTLTRYDQPDSRSRQLLAALDHLTDDSDVADRVDPARRGVMGHSMGGGGSLQAALDDPDLKAAIPMTPWHTTKDFSGVRTPTLIIGAQNDTVAPVSQHAKPFYESLPDDPGKAYLELAGASHFAPNVDNTTIARYSIAWLKRFLDDDTRYEQFLCPPPPDPAISDHQSTCPY [TEP105]

>  <Readout units>
C

>  <melting temperature>
61.6

$$$$

Field: next sequence
Reported melting temperature for ADNPYQRGPDPTPALVASVNGPFATASVSVPAGYGFGGGMIYYPTDTSQGTFGGIAISPGYTALFSAELAWMGPWLASHGFVVIGIETNNRNDFDEARGTQLLAALDYLTQQSPVRNRVDPNRLAVAGHSMGGGGALNAAIRRPSLKAAVGLAPFSPSSNLANDRVPTMVFSGQQDTVVTPSYVTGLYNSLPSTTQSAYLEIAGGDHGFPVGRPNQVMIRTMLPFVKIFVDYDTRYSPFLCPLSDTSGVVTYRSTCPLTPPGLPTTPPTTPPTTVPTSPPTGGPTTPPTTPSQPGGACTATYRTVNSWPGGFQGEVTVTAGNSAINGWTVRWTLDSGQAITQVWNGEVSTSGSTVSVRNAPYNGSLPPSGSTTFGFLSSGSPSSPSLTCTSP [DP059] : what is it?
74.2
